Test system: Klebsiella pneumoniae
Conditions: Concentration 20 uM; ASSAY_TEST Inhibition of Bacterial Growth; detection method Absorption (OD600); MEDIA CAMHB; plate type 384well; NBS; CORNING #3640; time 18 hr
Description: Antibacterial activity against Klebsiella pneumoniae MDR ATCC 70063 (CO-ADD:GN_003); MIC in CAMBH media using NBS plates, by OD(600)
Potency and affinity values are given separately.
parameter: Inhibition (%)

compound=COc1ccc(Cn2cnc3c(-c4ccco4)nc(Cl)nc32)cc1 data_value=18.21
compound=Clc1ccc(CCNc2cc(-c3ccccc3)nc3ncnn23)cc1 data_value=8.91
compound=CC(=O)O.CC(=O)O.Nc1ncnc2c1ncn2[C@@H]1O[C@H](COS(=O)(=O)NC(=O)c2ccccc2O)[C@@H](O)[C@H]1O data_value=14.67
compound="Cl.NCC(c1cccs1)S(=O)(=O)c1ccccc1 (stereo not given)" data_value=-0.58
compound="CC(C)C(C(=O)Nc1ccc(S(=O)(=O)N(C)C)cc1)c1ccc(Cl)cc1 (stereo not given)" data_value=-12.7
